# experimental target: 2-5A-dependent ribonuclease (Homo sapiens, UniProt Q05823)
# Sequence (Q05823 whole entry): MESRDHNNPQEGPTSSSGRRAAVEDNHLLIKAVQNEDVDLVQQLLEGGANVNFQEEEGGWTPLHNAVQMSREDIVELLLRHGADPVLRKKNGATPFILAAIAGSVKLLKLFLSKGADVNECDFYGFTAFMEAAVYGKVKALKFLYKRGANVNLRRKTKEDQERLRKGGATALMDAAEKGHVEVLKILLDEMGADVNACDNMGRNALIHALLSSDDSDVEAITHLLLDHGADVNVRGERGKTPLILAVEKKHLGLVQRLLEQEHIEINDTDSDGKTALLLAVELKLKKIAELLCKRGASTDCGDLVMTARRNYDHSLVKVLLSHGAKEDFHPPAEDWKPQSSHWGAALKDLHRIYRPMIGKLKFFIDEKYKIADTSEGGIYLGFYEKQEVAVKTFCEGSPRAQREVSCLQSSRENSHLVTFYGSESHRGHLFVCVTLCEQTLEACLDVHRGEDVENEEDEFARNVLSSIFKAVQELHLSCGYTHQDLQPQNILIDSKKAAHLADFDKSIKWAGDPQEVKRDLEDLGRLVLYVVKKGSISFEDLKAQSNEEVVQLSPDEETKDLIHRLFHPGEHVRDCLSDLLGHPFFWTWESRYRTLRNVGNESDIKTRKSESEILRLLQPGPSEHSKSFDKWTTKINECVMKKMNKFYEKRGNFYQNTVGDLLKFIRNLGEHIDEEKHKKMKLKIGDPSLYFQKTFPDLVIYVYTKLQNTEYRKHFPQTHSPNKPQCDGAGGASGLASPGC
# assay info: Induction of recombinant human RNase L activity expressed in Escherichia coli using F-5'-r(C11U2C7)-3' as substrate by polyacrylamide gel electrophoresis
# settings: read-out: EC50
property name: EC50 (µM)
Give the quantity in µM, number only.

Asked: Form field - read-out: EC50; system: 2-5A-dependent ribonuclease (Homo sapiens, UniProt Q05823); submitted item: Nc1ncnc2c1ncn2[C@@H]1O[C@H](COP(=O)(O)O[C@@H]2[C@H](O)[C@@H](COP(=O)(O)O[C@@H]3[C@H](O)[C@@H](COP(=O)(O)O[C@@H]4[C@H](O)[C@@H](COP(=O)(O)O)O[C@H]4n4ccc(=O)[nH]c4=O)O[C@H]3n3cnc4c(N)ncnc43)O[C@H]2n2cnc3c(N)ncnc32)[C@@H](O)[C@H]1O
Given back: 0.084

---
Asked: Enter reported EC50 observed with 2-5A-dependent ribonuclease (Homo sapiens, UniProt Q05823) for Cc1nc2c(N)ncnc2n1[C@@H]1O[C@H](COP(=O)(O)O[C@@H]2[C@H](O)[C@@H](COP(=O)(O)O[C@@H]3[C@H](O)[C@@H](COP(=O)(O)O[C@@H]4[C@H](O)[C@@H](CO)O[C@H]4n4ccc(=O)[nH]c4=O)O[C@H]3n3cnc4c(N)ncnc43)O[C@H]2n2cnc3c(N)ncnc32)[C@@H](O)[C@H]1O
Given back: 0.0024
